Values from patent US20230014445A1

- Target Desc: PI3K-α (PIK3CA) in MDA-MB-453 cells (Homo sapiens)
- Sequence (P42336 whole entry): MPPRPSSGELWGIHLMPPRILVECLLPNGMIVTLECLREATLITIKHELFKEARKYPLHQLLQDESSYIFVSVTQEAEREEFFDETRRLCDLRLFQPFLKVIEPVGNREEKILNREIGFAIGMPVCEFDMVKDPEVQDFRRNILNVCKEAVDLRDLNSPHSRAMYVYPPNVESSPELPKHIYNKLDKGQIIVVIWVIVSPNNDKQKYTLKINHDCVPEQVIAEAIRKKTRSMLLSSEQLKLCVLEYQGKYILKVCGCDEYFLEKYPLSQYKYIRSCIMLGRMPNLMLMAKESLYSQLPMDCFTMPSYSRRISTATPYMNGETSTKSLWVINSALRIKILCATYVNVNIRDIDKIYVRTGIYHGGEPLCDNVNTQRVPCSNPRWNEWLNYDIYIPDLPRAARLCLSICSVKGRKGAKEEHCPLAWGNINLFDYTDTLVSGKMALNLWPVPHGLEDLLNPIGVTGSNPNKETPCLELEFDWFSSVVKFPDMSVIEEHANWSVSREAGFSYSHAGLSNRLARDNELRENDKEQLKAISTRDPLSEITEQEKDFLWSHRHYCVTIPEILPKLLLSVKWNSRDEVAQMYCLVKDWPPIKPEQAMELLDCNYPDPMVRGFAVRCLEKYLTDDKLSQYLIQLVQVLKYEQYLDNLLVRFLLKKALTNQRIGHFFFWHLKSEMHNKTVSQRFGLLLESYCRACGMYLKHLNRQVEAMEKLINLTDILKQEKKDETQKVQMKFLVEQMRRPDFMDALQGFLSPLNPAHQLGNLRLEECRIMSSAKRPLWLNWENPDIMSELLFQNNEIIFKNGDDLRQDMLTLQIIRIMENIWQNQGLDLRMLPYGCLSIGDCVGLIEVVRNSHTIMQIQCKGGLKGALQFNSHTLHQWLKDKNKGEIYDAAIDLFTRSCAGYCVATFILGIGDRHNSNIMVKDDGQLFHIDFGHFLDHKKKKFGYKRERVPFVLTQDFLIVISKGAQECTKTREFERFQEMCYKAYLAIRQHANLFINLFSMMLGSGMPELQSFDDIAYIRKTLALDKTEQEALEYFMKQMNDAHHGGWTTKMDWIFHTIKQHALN
- Sequence (P27986 2-724, further chain): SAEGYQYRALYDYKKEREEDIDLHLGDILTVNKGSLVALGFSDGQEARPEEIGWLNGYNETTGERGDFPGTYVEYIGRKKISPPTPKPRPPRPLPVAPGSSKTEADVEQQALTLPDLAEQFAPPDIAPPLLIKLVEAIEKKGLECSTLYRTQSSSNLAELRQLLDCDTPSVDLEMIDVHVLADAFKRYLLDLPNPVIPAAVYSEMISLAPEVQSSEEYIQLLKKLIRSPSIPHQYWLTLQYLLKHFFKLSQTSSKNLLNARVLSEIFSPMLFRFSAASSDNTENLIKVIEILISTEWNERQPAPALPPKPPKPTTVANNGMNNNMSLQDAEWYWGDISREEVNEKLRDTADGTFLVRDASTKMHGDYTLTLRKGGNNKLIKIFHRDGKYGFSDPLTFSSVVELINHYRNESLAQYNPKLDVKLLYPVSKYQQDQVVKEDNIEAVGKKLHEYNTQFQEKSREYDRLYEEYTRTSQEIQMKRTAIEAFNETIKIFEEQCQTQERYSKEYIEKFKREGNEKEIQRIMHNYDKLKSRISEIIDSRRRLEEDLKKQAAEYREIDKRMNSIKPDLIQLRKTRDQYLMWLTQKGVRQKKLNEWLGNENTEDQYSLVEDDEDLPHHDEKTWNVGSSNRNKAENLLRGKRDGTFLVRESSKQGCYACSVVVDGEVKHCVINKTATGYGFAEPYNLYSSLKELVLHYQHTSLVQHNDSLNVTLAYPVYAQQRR
- Test Description: PI3K-Alpha Kinase (PIK3CA) activity in vitro cell based assay (AlphaLisa SureFire)
- Test Context: 0% FBS, 3 hours treatment, read-out: PI3K-α (PIK3CA) in vitro cell based assay IC50
pIC50: −log10 of the molar value.
Quick reference: pIC50 of the listed items.

{"Compound": "Cc1cc(C(C)Nc2ccccc2C(=O)O)c2oc(-c3cnc(C)nc3)cc(=O)c2c1 (single isomer, unassigned; isomer 2) [Example 33]", "Target Desc": "PI3K-α (PIK3CA) in MDA-MB-453 cells (Homo sapiens)", "pIC50": "< 6.30"}
{"Compound": "Cc1cc(C(C)Nc2ccccc2C(=O)O)c2oc(-c3ccc(F)nc3)cc(=O)c2c1 (single isomer, unassigned; isomer 1) [Example 35]", "Target Desc": "PI3K-α (PIK3CA) in MDA-MB-453 cells (Homo sapiens)", "pIC50": "< 6.30"}
{"Compound": "Cc1cc(C(C)Nc2ccc(Cl)nc2C(=O)O)c2oc(-c3cccnc3)c(C)c(=O)c2c1 (single isomer, unassigned; isomer 1) [Example 115]", "Target Desc": "PI3K-α (PIK3CA) in MDA-MB-453 cells (Homo sapiens)", "pIC50": "> 7.30"}
{"Compound": "Cc1cc(C(C)Nc2ccc(C(F)(F)F)cc2C(=O)O)c2oc(-c3cccnc3)c(C)c(=O)c2c1 (single isomer, unassigned; isomer 1) [Example 119]", "Target Desc": "PI3K-α (PIK3CA) in MDA-MB-453 cells (Homo sapiens)", "pIC50": "7.00 to 7.30"}
{"Compound": "Cc1cc(C(C)Nc2cccc(F)c2C(=O)O)c2oc(-c3ccccn3)cc(=O)c2c1 (single isomer, unassigned; isomer 2) [Example 111]", "Target Desc": "PI3K-α (PIK3CA) in MDA-MB-453 cells (Homo sapiens)", "pIC50": "< 6.30"}

Note to self: pIC50 recorded for Cc1cc(C(C)Nc2ccccc2C(=O)O)c2oc(-c3ccc(C(F)(F)F)nc3)cc(=O)c2c1 (single isomer, unassigned; isomer 1) [Example 37] was < 6.30

Note to self: pIC50 recorded for Cc1c(-c2cncc(F)c2)oc2c(C(C)Nc3ccc(Cl)nc3C(=O)O)cc(C(F)(F)F)cc2c1=O (single isomer, unassigned; isomer 1) [Example 97] was > 7.30

Note to self: pIC50 recorded for Cc1cc(C(C)Nc2cccnc2C(=O)O)c2oc(-c3cncc(F)c3)c(C)c(=O)c2c1 (single isomer, unassigned; isomer 1) [Example 131] was 7.00 to 7.30

----------
Quick reference: IC50 of the listed items.
- Target Desc: human full length PIK3KA H1047R mutant (p110α/p85α complex) (Homo sapiens, UniProt P42336, H1047R)
- Construct: Recombinant, catalytically active human full length PIK3KA Wild-type and H1047R mutant were purchased; 6xHis (N); purchased EMD Millipore Sigma 14-792M
- Sequence (P42336 whole entry H1047R): as the sequence (P42336 whole entry) above, with H1047R counted along it
- Sequence (P27986 whole entry partner): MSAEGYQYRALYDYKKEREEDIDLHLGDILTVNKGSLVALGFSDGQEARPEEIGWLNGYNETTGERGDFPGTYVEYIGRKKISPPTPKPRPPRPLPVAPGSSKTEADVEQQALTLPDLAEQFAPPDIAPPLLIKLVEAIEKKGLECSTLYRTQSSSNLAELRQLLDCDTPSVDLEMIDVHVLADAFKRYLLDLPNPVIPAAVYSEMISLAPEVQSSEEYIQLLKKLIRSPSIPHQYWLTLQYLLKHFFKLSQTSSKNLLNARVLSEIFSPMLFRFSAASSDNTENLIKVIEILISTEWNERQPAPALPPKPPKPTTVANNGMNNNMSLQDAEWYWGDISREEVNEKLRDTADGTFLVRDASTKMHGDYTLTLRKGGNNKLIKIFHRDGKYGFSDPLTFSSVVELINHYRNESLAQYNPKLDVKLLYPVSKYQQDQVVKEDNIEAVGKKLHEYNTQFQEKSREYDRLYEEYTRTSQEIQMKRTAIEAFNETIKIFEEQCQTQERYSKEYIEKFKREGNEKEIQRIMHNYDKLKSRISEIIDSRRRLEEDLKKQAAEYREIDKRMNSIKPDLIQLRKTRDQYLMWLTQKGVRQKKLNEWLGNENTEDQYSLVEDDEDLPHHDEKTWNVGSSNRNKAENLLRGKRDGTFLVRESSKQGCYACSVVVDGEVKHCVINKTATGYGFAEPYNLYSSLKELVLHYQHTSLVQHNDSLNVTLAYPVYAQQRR
- Test Description: PI3K-Alpha Kinase (PIK3CA) biochemical activity, H1047R mutant (ADP-Glo)
- Test Context: Soy PI lipid substrate, 20 uM ATP

{"Compound": "Cc1cc(C(C)Nc2ccccc2C(=O)O)c2oc(-c3cnc(N(C)C)s3)c(C)c(=O)c2c1 (single isomer, unassigned; isomer 1)", "Data Value": "< 500 nM"}
{"Compound": "COc1ccc(-n2cc(-c3oc4c(C(C)Nc5ccccc5C(=O)O)cc(C)cc4c(=O)c3C)cn2)cc1 (single isomer, unassigned)", "Data Value": "< 500 nM"}

Attention now turns to another entry.
Note to self: IC50 recorded for Cc1cc(C(C)Nc2ccc(Br)nc2C(=O)O)c2oc(-c3cccnc3)c(C)c(=O)c2c1 (single isomer, unassigned; isomer 1) was < 500 nM

----------
- Target Desc: human full length PIK3KA H1047R mutant (p110α/p85α complex) (Homo sapiens, UniProt P42336, H1047R)
- Construct: Recombinant, catalytically active human full length PIK3KA Wild-type and H1047R mutant were purchased; 6xHis (N); purchased EMD Millipore Sigma 14-792M
- Test Description: PI3K-Alpha Kinase (PIK3CA) biochemical activity, H1047R mutant (ADP-Glo)
- Test Context: Soy PI lipid substrate, 20 uM ATP
Quick reference: IC50 of the listed items.

{"Compound": "CC(Nc1ccccc1C(=O)O)c1cc(F)cc2c(=O)cc(-c3ccccn3)oc12 (single isomer, unassigned) [Example 46]", "IC50": "< 500 nM"}
{"Compound": "CC(Nc1ccc(Cl)nc1C(=O)O)c1cc(C(F)(F)F)cc2c(=O)cc(-c3cnn(-c4ccc(C#N)cc4)c3)oc12 (single isomer, unassigned; isomer 1) [Example 96]", "IC50": "< 500 nM"}

Note to self: IC50 recorded for Cc1cc(C(C)Nc2ccc(Cl)cc2C(=O)O)c2oc(-c3cccnc3)c(C)c(=O)c2c1 (single isomer, unassigned; isomer 1) [Example 132] was < 500 nM

Note to self: IC50 recorded for Cc1cc(C(C)Nc2ccccc2C(=O)O)c2oc(-c3cc(C#N)ccn3)cc(=O)c2c1 (stereo not drawn) [Example 10] was 500 to 1000 nM

Note to self: IC50 recorded for Cc1cc(C(C)Nc2ccccc2C(=O)O)c2oc(-c3cnn(-c4ccccn4)c3)cc(=O)c2c1 (single isomer, unassigned) [Example 108] was 500 to 1000 nM

Note to self: IC50 recorded for Cc1cc(C(C)Nc2ccc(Cl)nc2C(=O)O)c2oc(-c3cnccn3)cc(=O)c2c1 (single isomer, unassigned; isomer 1) [Example 28] was < 500 nM

----------
Quick reference: IC50 of the listed items.
- Target Desc: human full length PIK3KA Wild-type (p110α/p85α complex) (Homo sapiens, UniProt P42336)
- Construct: Recombinant, catalytically active human full length PIK3KA Wild-type and H1047R mutant were purchased; 6xHis (N); purchased EMD Millipore Sigma 14-602M
- Test Description: PI3K-Alpha Kinase (PIK3CA) biochemical activity, wild-type (ADP-Glo)
- Test Context: Soy PI lipid substrate, 20 uM ATP

{"Compound": "Cc1cc(C(C)Nc2ccccc2C(=O)O)c2oc(-c3cnn(-c4ccc(C#N)c(F)c4)c3)cc(=O)c2c1 (single isomer, unassigned) [Example 85]", "Target Desc": "human full length PIK3KA Wild-type (p110α/p85α complex) (Homo sapiens, UniProt P42336)", "Endpoint Label": "IC50", "Data Value": "1000 to 5000 nM"}
{"Compound": "Cc1cc(C(C)Nc2ccc(Cl)nc2C(=O)O)c2oc(-c3ccccn3)c(C)c(=O)c2c1 (single isomer, unassigned; isomer 1) [Example 60]", "Target Desc": "human full length PIK3KA Wild-type (p110α/p85α complex) (Homo sapiens, UniProt P42336)", "Endpoint Label": "IC50", "Data Value": "500 to 1000 nM"}

Note to self: IC50 recorded for CC(Nc1ccc(Cl)nc1C(=O)O)c1cc(C(F)(F)F)cc2c(=O)cc(-c3cnn(-c4ccc(C#N)cc4)c3)oc12 (single isomer, unassigned; isomer 1) [Example 96] was 1000 to 5000 nM

Note to self: IC50 recorded for Cc1cc(C(C)Nc2ccc(Cl)cc2C(=O)O)c2oc(-c3cccnc3)c(C)c(=O)c2c1 (single isomer, unassigned; isomer 1) [Example 132] was 500 to 1000 nM

Note to self: IC50 recorded for Cc1cc(C(C)Nc2ccccc2C(=O)O)c2oc(-c3cc(C)n[nH]3)cc(=O)c2c1 (single isomer, unassigned) [Example 75] was 5000 to 10000 nM

Note to self: IC50 recorded for COc1cccc(-n2cc(-c3cc(=O)c4cc(C)cc(C(C)Nc5ccccc5C(=O)O)c4o3)nn2)c1 (single isomer, unassigned; isomer 2) [Example 98] was 1000 to 5000 nM

Note to self: IC50 recorded for CC(Nc1ccccc1C(=O)O)c1cc(F)cc2c(=O)cc(-c3ccccn3)oc12 (single isomer, unassigned) [Example 46] was 5000 to 10000 nM

Note to self: IC50 recorded for Cc1cc(C(C)Nc2ccc(F)cc2C(=O)O)c2oc(-c3cccnc3)c(C)c(=O)c2c1 (single isomer, unassigned; isomer 1) [Example 120] was 1000 to 5000 nM

Note to self: IC50 recorded for Cc1cc(C(C)Nc2ccc(Cl)nc2C(=O)O)c2oc(-c3cnccn3)cc(=O)c2c1 (single isomer, unassigned; isomer 1) [Example 28] was 1000 to 5000 nM

Note to self: IC50 recorded for Cc1cc(C(C)Nc2ccccc2C(=O)O)c2oc(-c3ccc(OC(C)C)nc3)cc(=O)c2c1 (stereo not drawn) [Example 1] was > 10000 nM

Note to self: IC50 recorded for Cc1cc(C(C)Nc2ccccc2C(=O)O)c2oc(-c3cnc(N(C)C)s3)c(C)c(=O)c2c1 (single isomer, unassigned; isomer 1) [Example 130] was 500 to 1000 nM

Note to self: IC50 recorded for Cc1cc(C(C)Nc2ccccc2C(=O)O)c2oc(-c3ncccn3)c(C)c(=O)c2c1 (single isomer, unassigned; isomer 1) [Example 34] was 1000 to 5000 nM
